tested on: CCRF-CEM leukemia; test: NCI-60 one-dose screen, 48 h; settings: 10 µM unless noted
This is part of a sample that, as a whole, favours compounds with a hit. Of some 83,000 tested, about 20% had one in any assay. Activity calls are given as the source filed them. How the source made its calls: active means growth percent below 10; inactive means the rest.
Outcomes: YES = active, NO = inactive

{"COMPOUND": "O=C(NCCNc1nccc(-n2ccc3cccnc32)n1)c1ccc(C(F)(F)F)cc1", "DISCRETE LABEL": "NO"}
{"COMPOUND": "COc1cc(C2CC(c3ccc4c(c3)OCO4)=NN2C=O)cc(OC)c1OC (stereo unspecified)", "DISCRETE LABEL": "NO"}
{"COMPOUND": "O=C(Oc1ccccc1[N+](=O)[O-])C1CCCN1C(=O)OCc1ccccc1 (stereo unspecified)", "DISCRETE LABEL": "NO"}
{"COMPOUND": "O=C(NCCCNc1nccc(-n2ccc3cccnc32)n1)c1c(F)cccc1F", "DISCRETE LABEL": "NO"}
{"COMPOUND": "O=C(O)c1cn(C2CC2)c2cc(N3CCN(C(=O)/C=C/c4ccc(Cl)cc4)CC3)c(F)cc2c1=O", "DISCRETE LABEL": "NO"}
{"COMPOUND": "CCCCCCCCCCCC(=O)NCCC[N+](C)(C)CC(=O)[O-]", "DISCRETE LABEL": "NO"}
{"COMPOUND": "COc1ccc(-c2cnnn2-c2nonc2-n2cccc2)cc1OC", "DISCRETE LABEL": "NO"}
{"COMPOUND": "C=CCSc1n[nH]c(-c2cccs2)n1", "DISCRETE LABEL": "NO"}
{"COMPOUND": "NC1=NC(SCc2ccccc2CCl)c2ncn(Cc3ccccc3CCl)c2N1 (stereo unspecified)", "DISCRETE LABEL": "YES"}
{"COMPOUND": "CC12CCC3C4(C)COC(c5ccccc5Cl)OC4CCC3(C)C1CC(C1=CCOC1=O)O2 (stereo unspecified)", "DISCRETE LABEL": "NO"}
{"COMPOUND": "COc1ccc(/C=N\\NC(=O)CN2CCN(c3cc4c(cc3F)c(=O)c(C(=O)N/N=C/c3ccc(OC)c(OC)c3)cn4C3CC3)CC2)cc1OC", "DISCRETE LABEL": "YES"}
{"COMPOUND": "C=C[C@@H]1C[C@H](O)Cc2ccccc2N1", "DISCRETE LABEL": "YES"}
{"COMPOUND": "COc1ccc(-c2nc3sc(-c4cc(OC)c(OC)c(OC)c4)nn3c2/C=C2/C(=O)Nc3ccc(F)cc32)cc1", "DISCRETE LABEL": "NO"}
{"COMPOUND": "C=C1C(=O)O[C@H]2[C@H]1CC/C(Cn1cc(CNC(=O)/C=C/c3c[nH]c4ccccc34)nn1)=C\\CC[C@@]1(C)O[C@@H]21", "DISCRETE LABEL": "YES"}
{"COMPOUND": "CN(C)c1ncnc2c1ccn2C1OC(CO)C(O)C1O (stereo unspecified)", "DISCRETE LABEL": "NO"}
{"COMPOUND": "CCOC(=O)c1c(NS(=O)(=O)c2ccc(C)cc2)sc2c1CCC1(C2)OCCO1", "DISCRETE LABEL": "NO"}
{"COMPOUND": "O=C1/C(=C/c2ccccc2)CN(C(=O)CCN2CCC(=NO)CC2)C/C1=C\\c1ccccc1", "DISCRETE LABEL": "YES"}
{"COMPOUND": "CCOC(=O)CN1/C(=N/c2sc3c(c2C(=O)OCC)CCN(C(=O)OCC)C3)SC(=O)/C1=C\\C(=O)OC", "DISCRETE LABEL": "NO"}
{"COMPOUND": "CCCCN(CCCC)C(=O)CC", "DISCRETE LABEL": "NO"}
{"COMPOUND": "CC12CCC3C4(C)COC(c5ccco5)OC4CCC3(C)C1CC(C1=CCOC1=O)O2 (stereo unspecified)", "DISCRETE LABEL": "NO"}
{"COMPOUND": "CCCCCCCCCCCCCCCCNC(=O)OC(C)C", "DISCRETE LABEL": "YES"}
{"COMPOUND": "N#C/C(=C1C=C/C(=N/O)C(Cl)=C/1)c1ccc(Cl)cc1", "DISCRETE LABEL": "YES"}
{"COMPOUND": "COc1cc(-c2nn(-c3cccc(NC(=O)c4ccc(N5CCOCC5)c(C(F)(F)F)c4)c3)cc2-c2ccncc2)ccc1Cl", "DISCRETE LABEL": "YES"}
{"COMPOUND": "CN(C)c1oc(C2OC2c2ccccc2)nc1C#N (stereo unspecified)", "DISCRETE LABEL": "NO"}
{"COMPOUND": "COc1cccc(/C=C2\\Oc3cc(OCCCN4CCCC4)ccc3C2=O)c1", "DISCRETE LABEL": "YES"}
{"COMPOUND": "C=C1CCC2C3(C)COC(c4ccccc4)OC3CCC2(C)C1/C=C/C1=CCOC1=O (stereo unspecified)", "DISCRETE LABEL": "YES"}
{"COMPOUND": "CC(C)(C)OC(=O)NC(CSCc1ccccc1)C(=O)ON1C(=O)CCC1=O (stereo unspecified)", "DISCRETE LABEL": "NO"}
{"COMPOUND": "COC(=O)c1cc(=O)nc(N/N=C/c2ccco2)s1", "DISCRETE LABEL": "NO"}
{"COMPOUND": "COC(=O)c1cccc2c1N(C)c1c(cccc1C(=O)OC)CC2", "DISCRETE LABEL": "NO"}
{"COMPOUND": "O=C(O)Cc1cccc(=O)c(O)c1C(=O)O", "DISCRETE LABEL": "NO"}
{"COMPOUND": "COc1c2occc2c(OC)c2c(=O)c(-c3cc(-c4ccc(F)cc4)c(C#N)c(N)n3)c(C)oc12", "DISCRETE LABEL": "NO"}
{"COMPOUND": "Cn1ccc(Nc2nccc(Oc3ccc(C(=O)Nc4cccc(F)c4)c(Cl)c3)n2)c1", "DISCRETE LABEL": "NO"}
{"COMPOUND": "COc1cc(NC(N)=NCCC(C)(C)c2ccc(C(F)(F)F)cc2)ncc1C#N", "DISCRETE LABEL": "NO"}
{"COMPOUND": "Fc1ccccc1-c1nc(-c2nc3cc(Cl)c(Cl)cc3[nH]2)c2ccccn12", "DISCRETE LABEL": "NO"}
{"COMPOUND": "Cc1cc(N/N=C/c2nc(-c3ccc(Br)cc3)oc2C)c2cc(Cl)ccc2n1", "DISCRETE LABEL": "YES"}
{"COMPOUND": "Nc1cccc(-c2nc3sccn3c2-c2ccnc(NCCCNS(=O)(=O)c3cccc4ccccc34)n2)c1", "DISCRETE LABEL": "NO"}
{"COMPOUND": "Nc1nc(Nc2cc(Cl)cc(Cl)c2)nn1S(=O)(=O)c1ccc2ccccc2c1", "DISCRETE LABEL": "NO"}
{"COMPOUND": "Cc1cc(N/N=C/c2nc(-c3ccc(Br)cc3)oc2C)c2cc(Br)ccc2n1", "DISCRETE LABEL": "YES"}
{"COMPOUND": "Cc1ccc(-c2nc(C#N)c(S(=O)(=O)n3nc(-c4ccccc4)cc3N)o2)cc1", "DISCRETE LABEL": "YES"}
{"COMPOUND": "O=[N+]([O-])c1cc(Cl)c2[nH]c3c(Cl)cc([N+](=O)[O-])cc3c2c1", "DISCRETE LABEL": "YES"}
{"COMPOUND": "O=C(/C=C\\c1cccc([N+](=O)[O-])c1)/C=C/c1cccc([N+](=O)[O-])c1", "DISCRETE LABEL": "NO"}
